# System: HCC-2998 colon
# METHOD NOTES: NCI-60 one-dose screen, 48 h
# EXPERIMENTAL CONDITIONS: 10 µM unless noted
# Method: Growth inhibition of the HCC-2998 human tumor cell line is measured as a screen for anti-cancer activity. Cells are grown in 96 well plates and exposed to the test compound for 48 hours. Compounds are tested at a single concentration, which is 10^-5 M for most compounds. The reported endpoint is percent growth (GI% or GIPRCNT), where numbers from 0 - 100% represent growth inhibition, and numbers from -100% - 0 represent cell death. For example, a value of 40 represents 60% growth inhibition. […]
Compounds without any hit were thinned out: in the full panel of roughly 83,000, 20% have a hit. Calls of active or inactive are those of the source. How the source made its calls: active means growth percent below 10; inactive means the rest.
Outcomes: y = active, n = inactive

| MOLECULE | LABEL CLASS |
| --- | --- |
| O=C(N/N=C(\CS(=O)(=O)c1ccccc1)c1cc2cc(Br)ccc2oc1=O)c1ccccc1 | n |
| CN1CCc2c(c3ccccc3c3ccccc23)C1 | n |
| Cc1ccc(NS(=O)(=O)c2ccc(-c3cnc(C4CC4)o3)cc2)cc1 | n |
| CCOC(=O)n1cc(C2=C(c3cn(C)c4ccccc34)COC2=O)c2ccccc21 | n |
| CCN(c1ccc(C(=O)N2CCN(c3ccccc3)CC2)cc1)S(C)(=O)=O | n |
| CC(C)(C)[Si](C)(C)OC1[C@@H](CNC(=O)NC(=O)CCl)O[C@@H](n2cnc3c(N)ncnc32)[C@H]1O[Si](C)(C)C(C)(C)C (stereo partly drawn) | y |
| Cc1ccc(N(CSc2ccc(Cl)cc2)CSc2ccc(Cl)cc2)cc1 | n |
| O=C1NC(=S)S/C1=C\c1cccc([N+](=O)[O-])c1 | n |
| Cc1nc2cc(Nc3nc(Nc4ccc(F)cc4)nc(N4CCN(C)CC4)n3)ccc2n1Cc1ccccc1 | y |
| CCN1C(=O)C2(Nc3ccccc3S2)c2cc(C)ccc21 (stereo not drawn) | n |
| O=c1ccc2ccccc2o1 | n |
| CCN1CCN(c2ccc(Nc3ncc4ccc5ncn(C(C)C)c5c4n3)nc2)CC1 | y |
| CC[Si](CC)(CC)OC1[C@@H](O[Si](CC)(CC)CC)[C@@H](CNC(=O)NC)O[C@H]1n1cnc2c(NC(=O)Nc3ccccc3)ncnc21 (stereo partly drawn) | n |
| COc1c(O)c2c3c(c1OC)-c1ccccc1CC3N(S(=O)(=O)c1ccc(C)cc1)CC2 (stereo not drawn) | n |
| CC(C)N1CCN(c2ccc(OC[C@H]3CO[C@](Cn4cncn4)(c4ccc(Cl)cc4Cl)O3)cc2)CC1 | n |
| O=C1C(Br)=C(c2ccccc2)C(=O)C(Br)=C1c1ccccc1 | n |
| COc1ccc(OC)c2ncccc12 | n |
| O/N=C/c1cccs1 | n |
| NC(=S)N/N=C1\c2ccccc2-c2c(F)c(F)c(F)c(F)c21 | n |
| O=S(=O)(OCCO)c1ccccc1 | n |
| O=C(Nc1ccccc1O)c1ccc(NS(=O)(=O)c2cccc3cccnc23)cc1 | n |
| O=c1[nH]c(-c2ccncc2)nc2sc3c(c12)CCCCCC3 | n |
| Brc1ccccc1Nc1ccc2nnc(-c3ccncc3)n2n1 | n |
| COc1nc2c(cc1S(=O)(=O)c1ccccc1)CCc1c-2cnn1-c1ccccc1 | n |
| CCC12CCC3c4ccc(O)cc4CCC3C1CC(O)C2O (stereo not drawn) | n |
| COc1ccc(/C=N\N2CCOCC2)cc1OC1CCCC1 | n |
| COc1ccc(/C=N/NC(=O)c2cnn3c2NC(c2ccccc2)C3)cc1OC1CCCC1 (stereo not drawn) | n |
| COc1cc(-c2nc(SC(C)C)nc(Nc3cccc(C)c3)c2C#N)cc(OC)c1OC | n |
| O=C1c2cc(S(=O)(=O)O)ccc2C(=O)c2c1cccc2[N+](=O)[O-] | n |
| Cc1cc(=O)c2c(C)ccc(C)c2[nH]1 | n |
| Cc1c(C(=O)Nc2nc(-c3ccccc3)cs2)nnn1-c1cccc2ccccc12 | n |
| CCCCCCCCCCCCCCn1c2ccccc2c2c3c(c4c5cc(OC)ccc5oc4c21)C(=O)NC3=O | n |
| N#Cc1c(-c2cccc(F)c2)cc(-c2ccc(Br)s2)[nH]c1=O | n |
| COc1cc(/C=C/C(=O)CC(=O)/C=C/c2cc(Br)c(OC)c(OC)c2)cc(Br)c1OC | n |
| COC(=O)[C@H]1CCCN1C(=O)[C@H]1CCCN1C(=O)[C@@H](Cc1c[nH]c2ccccc12)NC(=S)Nc1cc(C(F)(F)F)cc(C(F)(F)F)c1 | n |
| CN1CCN(C(=O)OCCOCCOC(=O)N2CCN(C)CC2)CC1 | n |
| COc1ccc(C2SC(C)C(=O)N2CCc2cccs2)cc1OC (stereo not drawn) | n |
| Nc1c(Br)cc(Br)cc1-c1n[nH]c(=O)[nH]c1=O | n |
| Cc1nc(-c2ccccc2)cc2c(O)c(C(=O)N/N=C/Cc3ccccc3)[nH]c(=O)c12 | n |
| Clc1nc(-c2ccccn2)nc2sc3c(c12)CCCCCC3 | n |
| CCOC(=O)c1c(Cl)c2c(n1Cc1ccc(OC)cc1)-c1oncc1CCC2 | n |
| CCOc1ccc(-c2cnnn2-c2nonc2-n2cccc2)cc1 | y |
| CN1CCc2cccc3c2C1Cc1ccc(O)c(O)c1-3 (stereo not drawn) | n |

* * *

# Test system: OVCAR-3 ovarian
# METHOD NOTES: NCI-60 one-dose screen, 48 h (100 = growth as untreated, 0 = no growth, -100 = all killed)
# EXPERIMENTAL CONDITIONS: 10 µM unless noted
The panel holds about 83,000 compounds, 20% with a hit somewhere; the sample as a whole holds those more often.
Checkbox rule: growth lower than 50% = met; growth not lower than 50% = not met.

| COMPOUND | LABEL CLASS |
| --- | --- |
| CN1CCc2cccc3c2C1Cc1ccc(O)c(O)c1-3 (stereo not given) | met |
| CN1CCc2c(c3ccccc3c3ccccc23)C1 | not met |
| COc1cc(C2C3=C(COC3=O)N(CCO)c3cc4c(cc32)OCO4)cc(OC)c1O (stereo not given) | met |
| COc1ccc(/C=N/OCC(O)CN2CCC(O)CC2)cc1OC1CCCC1 (stereo not given) | not met |
| COc1cc(/C=C/C(=O)CC(=O)/C=C/c2cc(Br)c(OC)c(OC)c2)cc(Br)c1OC | not met |
| COc1ccc(NC(=O)c2ccc3c(c2)nc(-c2ccc(Cl)cc2)n3-c2cc(C(C)(C)C)[nH]n2)cc1 | not met |
| COc1ccc(-c2[nH]ncc2Nc2cc(OC)c(OC)c(OC)c2)cc1 | met |
| CCCCCCCCCCCCCCn1c2ccccc2c2c3c(c4c5cc(OC)ccc5oc4c21)C(=O)NC3=O | not met |
| CCCCCn1c(=N)n(CC(O)COc2cccc(C)c2)c2ccccc21 (stereo not given) | met |
| CC1(C)N=C(N)N=C(N)N1c1cccc(OCCOc2cccc([N+](=O)[O-])c2)c1 | met |
| Cc1ccc2c(c1)c(Sc1ccc(C(=O)NO)cc1)c1n2CN(C)CC1 | met |
| Cc1ccc(-c2nnc(COc3ccc(-c4nnc(N)s4)cc3)o2)cc1 | not met |
| COc1cccc(OC(=O)c2ccccc2)c1OC(=O)c1ccccc1 | not met |
| COc1ccc(-n2c(SCc3cc(OC)c(OC)c(OC)c3)nc3ccc(C)cc3c2=O)c(OC)c1 | met |
| COc1cc(/C=C/C(=O)C(=Cc2ccc(F)c(F)c2)C(=O)/C=C/c2ccc(O)c(OC)c2)ccc1O | met |
| C[C@H]1C(=O)C23CCC1C[C@@]21O[C@@H]2C(C)(C)C=CC(=O)C23COC1=O | not met |
| O=C(O)C[C@H](O)C[C@H](O)/C=C/c1c(C2CC2)nc2ccccc2c1-c1ccc(F)cc1 | not met |
| COc1cccc(C2CC(=O)Nc3cc4c(cc32)OCO4)c1OC (stereo not given) | not met |
| O=c1nc(NO)[nH]c(=O)n1Cc1ccccc1 | not met |

* * *

# System: MALME-3M melanoma
# METHOD NOTES: NCI-60 one-dose screen, 48 h (100 = growth as untreated, 0 = no growth, -100 = all killed)
# EXPERIMENTAL CONDITIONS: 10 µM unless noted
This is part of a sample that, as a whole, favours compounds with a hit. Of some 83,000 tested, about 20% had one in any assay. Activity calls are given as the source filed them. Rule for the calls: active = growth percent below 10; inactive = the rest.
Collected growth values appear next to each entry.

| COMPOUND | growth |
| --- | --- |
| O=C1C2CC3C(CC2C(=O)[N]1[Sn]([c]1ccccc1)([c]1ccccc1)[c]1ccccc1)C1(Cl)C(Cl)=C(Cl)C3(Cl)C1(Cl)Cl (configuration not stated) | -91.8% (active) |
| O=C(c1cnn2c1NC(c1ccc(F)cc1)C2)N1CCCCC1 (configuration not stated) | 97.7% (inactive) |
| O=c1ccc2ccccc2o1 | 110% (inactive) |
| Brc1ccc(SCN(CSc2ccc(Br)cc2)Cc2ccccc2)cc1 | 104% (inactive) |
| Cc1ccccc1-n1nnc(C(=O)Nc2nc(-c3ccccc3)c(-c3ccccc3)s2)c1C | 80% [50 µM] (inactive) |
| O=c1onc(-c2ccccc2)c2ccccc12 | 121% (inactive) |
| CC(=O)N(CC(O)CO)c1c(I)c(C(=O)NCCO)c(I)c(C(=O)NCC(O)CO)c1I (configuration not stated) | 92.4% (inactive) |
| Nc1nc2c(s1)CCc1c-2c(Br)n(Cc2ccccc2)c1Br | 37.8% (inactive) |
| COc1cccc(OC)c1OC(=O)c1ccccc1 | 106% (inactive) |
| CCCCC1COc2cccc3c(SCC(=O)N(C)c4cccc5ccccc45)cc[n+]1c23 (configuration not stated) | 107% (inactive) |
| Cc1nc(-c2ccccc2)cc2c(O)c(C(=O)N/N=C/Cc3ccccc3)[nH]c(=O)c12 | 116% (inactive) |
| CC1SC(c2ccc(Cl)cc2)N(CCc2cccs2)C1=O (configuration not stated) | -32.8% (active) |
| Clc1ccccc1Nc1ccc2nnc(-c3ccncc3)n2n1 | 112% (inactive) |
| Cc1nc2cc(Nc3nc(Cl)nc(Nc4ccc(F)cc4)n3)ccc2n1Cc1ccccc1 | 107% (inactive) |
| O=C(c1ccccc1)C(Br)C(Br)c1cccc([N+](=O)[O-])c1 (configuration not stated) | -43.1% (active) |
| Nc1c(Br)cc(Br)cc1-c1n[nH]c(=O)[nH]c1=O | 98.4% (inactive) |
| CCCCC(O)Cn1ncc(C(=O)OCC)c1NC(=O)NCc1ccccc1C(F)(F)F (configuration not stated) | 93.2% (inactive) |
| Cc1nn(-c2ccccc2)c2nc3nc4c(c(N)c3c(-c3ccc(Cl)cc3)c12)CCCC4 | 108% (inactive) |
| Cc1c(C(=O)Nc2nc(-c3ccccc3)cs2)nnn1-c1cccc2ccccc12 | 55.4% [50 µM] (inactive) |
| CCC(C)[C@H]1O[C@]2(CC[C@@H]1C)C[C@@H]1C[C@@H](C/C=C(\C)[C@@H](OC3C[C@H](OC)C(O[C@H]4C[C@H](OC)[C@@H](O)[C@H](C)O4)[C@H](C)O3)[C@@H](C)/C=C/C=C3\CO[C@@H]4[C@H](O)C(C)=C[C@@H](C(=O)O1)[C@]34O)O2 (some centres not stated) | 0.803% (active) |
| CON=C1C[C@]2(C[C@@H]3C[C@@H](C/C=C(\C)C[C@@H](C)/C=C/C=C4\CO[C@@H]5[C@H](O)C(C)=C[C@@H](C(=O)O3)[C@]45O)O2)O[C@H](/C(C)=C/C(C)C)[C@H]1C | 65.9% (inactive) |
| O=C1/C(=C/c2ccc([N+](=O)[O-])cc2)Oc2ccc(O)cc21 | 91.8% (inactive) |
| O=C(COc1ccc(/C=C2\CSc3ccccc3C2=O)cc1)c1ccc(Cl)cc1 | 98.7% (inactive) |
| CCCCC(CCCC)(S(=O)(=O)CC)S(=O)(=O)CC | 99.8% (inactive) |
| NS(=O)(=O)c1ccc(C(=O)N/N=C(\CS(=O)(=O)c2ccccc2)c2cc3cc(Br)ccc3o2)cc1 | 90.5% (inactive) |
| O/N=C/c1cccs1 | 105% (inactive) |
| CCN(c1ccc(C(=O)N2CCN(c3ccccc3)CC2)cc1)S(C)(=O)=O | 94.2% (inactive) |
| COc1ccc(-c2[nH]ncc2Nc2cc(OC)c(OC)c(OC)c2)cc1 | 44.1% (inactive) |
| CN1CCC(OC2c3ccccc3CCc3ccccc32)CC1 | 102% (inactive) |
| Cc1cc(Cl)c2c(Cl)ccc(Cl)c2n1 | 105% (inactive) |
| CSC1=CC(=O)c2ccccc2C1=O | -0.209% (active) |
| Cc1ccc(N=c2nc3sc4c(C)ccc(C)c4n3c(N)c2C#N)cc1 | 125% (inactive) |
| O=C1OCC2=C1C(c1ccc3c(c1)OCO3)CC(=O)N2c1cccc(Cl)c1 (configuration not stated) | 88.4% (inactive) |
| O=C1/C(=C/c2ccc(Cl)cc2)CN(Cc2cn(CCCNc3ccnc4cc(Cl)ccc34)nn2)C/C1=C\c1ccc(Cl)cc1 | -64.6% (active) |
| CN1CCN(C)c2cncc(Br)c2C1=O | 99.3% (inactive) |
| COc1ccc(C(=O)C2=CC(=O)C(=O)C2)cc1OC | 114% (inactive) |
| COc1cc2cc(Oc3ccc(NC(=O)Nc4cccc(C(F)(F)F)c4)cc3)c(C)nc2cc1OCCN1CCCCC1 | -88.5% (active) |
